molecular target: human recombinant adrenergic α1D receptor (Homo sapiens, UniProt P25100); construct: expressed in transfected cells; host or cells: HEK-293 cells; test: Adrenergic α1D radioligand binding ([3H]Prozosin); parameters: concentration or dose not given beside the values; settings: percent inhibition of specific binding
Sequence (P25100 whole entry): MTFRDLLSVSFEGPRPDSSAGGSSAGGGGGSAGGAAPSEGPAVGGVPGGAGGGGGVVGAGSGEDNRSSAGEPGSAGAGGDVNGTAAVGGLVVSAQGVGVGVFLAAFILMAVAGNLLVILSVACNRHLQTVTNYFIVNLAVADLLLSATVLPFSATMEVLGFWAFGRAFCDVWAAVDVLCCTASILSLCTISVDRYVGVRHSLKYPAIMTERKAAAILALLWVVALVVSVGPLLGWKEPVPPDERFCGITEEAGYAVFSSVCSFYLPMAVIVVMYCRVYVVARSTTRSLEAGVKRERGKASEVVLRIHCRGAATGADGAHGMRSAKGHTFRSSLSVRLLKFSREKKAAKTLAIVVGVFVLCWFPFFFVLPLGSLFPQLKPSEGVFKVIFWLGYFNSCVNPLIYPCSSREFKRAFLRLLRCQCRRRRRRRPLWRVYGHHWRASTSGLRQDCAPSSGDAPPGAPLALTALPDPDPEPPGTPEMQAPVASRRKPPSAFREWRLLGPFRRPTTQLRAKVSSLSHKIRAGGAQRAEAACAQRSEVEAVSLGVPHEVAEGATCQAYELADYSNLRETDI
Would you please tag the item yes (1) when its Inhibition of ligand binding, Adren. alpha1D is 20% or above, and no (0) when it is below?

Reference set, count: 5
CN1CCc2c(c3cc(Cl)ccc3n2CCn2cccc2)C1 [Compound 349] :: yes (1)
CN1CCc2c(c3cc(Cl)ccc3n2CCc2ccncc2)C1 [Compound 56] :: yes (1)
CN1CCc2c(c3cc(I)ccc3n2CCc2ccccc2F)C1 [Compound 89] :: yes (1)
Cc1ccc2c(c1)c1c(n2CC(=O)N2CCc3ccccc3C2)CCN(C)C1 [Compound 398] :: no (0)
CCN1CCc2c(c3ccccc3n2CCc2ccccc2)C1 [Compound 4] :: yes (1)

Could you now look at the following compound, please?
Query string: Confirm if Inhibition of ligand binding, Adren. alpha1D reported for the compound CCCc1ccc(CCn2c3c(c4cc(C)ccc42)CN(C)CC3)cn1 [Compound 452] is 20% or above.
Result string: yes (1)
